The measurements presented in this section are drawn from patent US20190241669A1.

# kon listing for each entry below
target: T1, cynomolgus monkey BCMA (cynomolgus monkey, UniProt A0A2K5UD97 1-53); assay: SPR, IgG on chip, cyBCMA analyte, 37C
T1 construct: Soluble analyte in SPR; construct not described; also called cyBCMA; Cyno BCMA
T1 sequence (A0A2K5UD97 entry or part of it): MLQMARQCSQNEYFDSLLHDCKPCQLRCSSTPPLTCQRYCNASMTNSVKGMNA
attribute measured: kon (M⁻¹ s⁻¹)

binder | observed measurement
L3.PY/L3.KF/H3.TAQ (antibody, V domains shown, IgG) VH: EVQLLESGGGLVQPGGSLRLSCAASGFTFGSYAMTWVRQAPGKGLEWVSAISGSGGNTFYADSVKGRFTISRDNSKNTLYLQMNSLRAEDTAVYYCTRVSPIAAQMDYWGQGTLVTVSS VL: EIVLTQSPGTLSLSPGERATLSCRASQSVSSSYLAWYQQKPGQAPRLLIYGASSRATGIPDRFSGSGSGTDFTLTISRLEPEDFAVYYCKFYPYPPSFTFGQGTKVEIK | 2.01e+06
L3.PY/L3.KF/H3.YA (antibody, V domains shown, IgG) VH: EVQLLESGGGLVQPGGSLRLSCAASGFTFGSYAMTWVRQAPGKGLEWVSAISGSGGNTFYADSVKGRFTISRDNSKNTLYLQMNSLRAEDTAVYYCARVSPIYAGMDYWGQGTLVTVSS VL: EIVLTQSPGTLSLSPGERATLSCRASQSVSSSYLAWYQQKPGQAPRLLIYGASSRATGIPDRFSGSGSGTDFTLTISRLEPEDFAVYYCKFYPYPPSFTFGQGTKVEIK | 2.1e+06
